# assaySummary: PAMPA (parallel artificial membrane permeability assay)
# Format: in vitro ADME
# assaySetup: PAMPA; membrane permeation rate (Pe); 50 mM MOPSO buffer pH 6.5 with 5.0% glycocholic acid, 37° C., 18 hours; read-out: iPAMPA Pe
# Method: 4 μL of a phospholipid-organic solvent solution composed of 10% (w/v) of egg lecithin, 0.5% (w/v) of cholesterol and dodecane (all purchased from Fluka) was added to a Millipore 96-well membrane filter (hydrophobic PVDF (polyvinylidene difluoride), pore size 0.45 microm) (purchased from Millipore Japan) to make an artificial phospholipid membrane. […]
Positions of bridges follow the written chain, without caps; N, C: chain ends. Non-standard residues stand in square brackets, D forms with d. Residues, ends and D or L forms follow the SMILES beside them. *: point of attachment. NMeF = CN[C@@H](Cc1ccccc1)C(=O)O; NMeL = CN[C@@H](CC(C)C)C(=O)O; NMeV = CN[C@H](C(=O)O)C(C)C; NMeA = CN[C@@H](C)C(=O)O; Piperidide = C1CCN(*)CC1; Sar = CNCC(=O)O
readoutType: Papp at 18 hours, 50 µM

CC[C@H](C)[C@@H]1NC(=O)[C@H](CC(C)C)N(C)C(=O)[C@H](C(C)C)N(C)C(=O)[C@H](Cc2ccccc2)N(C)C(=O)[C@H](CC(C)C)NC(=O)[C@H](C)N(C)C(=O)[C@H](C)N(C)C(=O)[C@H]([C@@H](C)O)NC(=O)[C@H](Cc2ccccc2)N(C)C(=O)CN(C)C(=O)C[C@@H](C(=O)N(C)[C@@H](Cc2ccccc2)C(=O)N[C@@H](C)C(=O)N2CCCCC2)NC1=O [DP-186] ([Sar][NMeF]T[NMeA][NMeA]L[NMeF][NMeV][NMeL]ID[NMeF]A-Piperidide; lactam N-11) = 37 ×10⁻⁶ cm/s
